B1: HNF4A (parent)
chain: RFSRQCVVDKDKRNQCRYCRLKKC

Variants of: B1
Experiment: protein stability index of a GFP-peptide fusion (GPS, HEK-293T) (PSI 1-6); higher = more stable;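 further: lentivirally expressed fusions sorted by FACS into six bins by GFP to DsRed ratio, PSI derived from sequencing read proportions per bin multiplied by bin number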
Details: c terminus: a fixed tail appended
ENDPOINT: protein stability index
The reply should be a number, written without any unit.

The examples below pair each entry with its known result.
{"MUTATIONS": "S3R", "protein stability index": 3.1}
{"MUTATIONS": "Y18N", "protein stability index": 3.78}
{"MUTATIONS": "R20F", "protein stability index": 2.12}
{"MUTATIONS": "C16G", "protein stability index": 2.61}
{"MUTATIONS": "C19T", "protein stability index": 2.99}
{"MUTATIONS": "D11T", "protein stability index": 2.32}

stdin: What does the record list as protein stability index for `Q5L` ?
stdout: 2.56

stdin: Give the measured protein stability index of `R1A` .
stdout: 2.4

stdin: Find the recorded protein stability index belonging to `R20D` and report it.
stdout: 3

stdin: What does the data say about its protein stability index? Entry: `C19L`
stdout: 3.07

stdin: I am curious: what protein stability index value has been reported for `K23T` ?
stdout: 2.37

stdin: Quick check: protein stability index of `R17A` ?
stdout: 2.77

stdin: For the variant shown here, `R4D` , give the reported protein stability index.
stdout: 2.27

stdin: Look up protein stability index: `C6R`
stdout: 2.6

stdin: Returns the measured protein stability index for the input variant. Input: `V7N`
stdout: 2.21

stdin: Name the recorded protein stability index for `Q15V` .
stdout: 2.52
